Entries and their SGCB cell-surface expression functional score (log10) values follow.
B1: library; numbered along this chain (parent)
chain: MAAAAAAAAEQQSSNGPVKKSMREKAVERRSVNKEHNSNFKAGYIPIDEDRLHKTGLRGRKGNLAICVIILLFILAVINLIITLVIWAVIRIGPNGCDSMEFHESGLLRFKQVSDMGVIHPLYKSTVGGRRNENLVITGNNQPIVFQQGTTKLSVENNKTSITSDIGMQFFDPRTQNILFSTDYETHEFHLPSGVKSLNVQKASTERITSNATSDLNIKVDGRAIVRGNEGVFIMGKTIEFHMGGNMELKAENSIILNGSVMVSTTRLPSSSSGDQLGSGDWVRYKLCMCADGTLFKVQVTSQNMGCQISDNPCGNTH

Variants of: B1
Assay: SGCB cell-surface expression functional score (HA stain, bin4 vs bin1, normalised to synonymous) (log10 ratio); higher = more cell-surface SGCB (functional)
Format: numeric value only, no unit, no commentary.

Example variants with recorded SGCB cell-surface expression functional score (log10):
Determine its reported SGCB cell-surface expression functional score (log10): T163R
-0.05

Give the measured SGCB cell-surface expression functional score (log10) for G16S
0.37

Answer with the recorded SGCB cell-surface expression functional score (log10) for the variant listed here: C288F
-0.71

New cases:
Tell me its SGCB cell-surface expression functional score (log10) given P17Y as the entry.
0.31
